tested on: Plasmodium falciparum; assay: Primary screen in NF54 nanoGlo assay, in single point, at 2uM, 72h; type: functional, Erythrocyte; settings: timepoint 72 hour
In all, about 150,000 compounds went through this assay and about 540 (0.36%) showed an effect of 50% or more. The entries come from a sample that favours strong results as a whole.
hey, just use 1.0 if measured % Inhibition is less than 40%, otherwise 0.0

| Molecule | Cat |
| --- | --- |
| CN(C)C1(CC2CC2)CCN(Cc2cccc(C#N)c2)CC1 | 1.0 |
| CNC(=O)[C@@H]1C[C@@H](NCc2ccc(C(F)(F)F)cc2)CN1CC(c1ccccc1)c1ccccc1 | 1.0 |
| Cn1c(-c2ccccc2)cn2cc(-c3ccc(Cl)cc3)nc12 | 0.0 |
| CC1CCN(c2nccnc2Oc2ccc(C(=O)NCc3ccccc3Cl)cc2)CC1 | 0.0 |
| CCC(C(=O)Nc1ccc2c(c1)CN(CCc1ccccc1)C(=O)C(C)O2)c1ccccc1 (stereo not given) | 1.0 |
| Cc1ccc(Cc2nnc(NC(=O)Cc3ccccc3Cl)o2)c(C)c1 | 1.0 |
| O=C(NCc1ccc(F)cc1)C1[C@@H]2C=C[C@@]3(CN(Cc4ccccc4Cl)C(=O)[C@H]13)O2 (stereo not given in full) | 1.0 |
| CCS(=O)(=O)N1CCC(N2C(=O)[C@@H]3CC[C@@H](c4ccccc4)N3C2=O)CC1 | 0.0 |
| CC1CCN(c2nccnc2Oc2ccc(C(=O)N3CCN(c4ccccc4Cl)CC3)cc2)CC1 | 1.0 |
| CNC(=O)[C@@H]1C[C@H](NCc2cc(OC)c(OC)c(OC)c2)CN1CC(c1ccccc1)c1ccccc1 | 0.0 |

---

test system: Plasmodium falciparum; experiment: Primary screen in NF54 nanoGlo assay, in single point, at 2uM, 72h; type: functional, Erythrocyte; settings: timepoint 72 hour
About 540 (0.36%) of roughly 150,000 compounds showed an effect of 50% or more. Many of the other results were omitted from the sample, so strong results are more common in it than they were.
Measurement label: % Inhibition (%)

| Molecule | Study target | Measurement label | Value observed |
| --- | --- | --- | --- |
| O=C(Cn1nccn1)N1CCN(Cc2ccc3c(c2)OCO3)CC1 | Plasmodium falciparum | % Inhibition | 2 |
| Cc1ccc(S(=O)(=O)n2cc(C)[nH]c2=O)cc1 | Plasmodium falciparum | % Inhibition | -23 |
| COc1ccc(C)c2sc(N(CCCN(C)C)C(=O)c3ccnn3C)nc12 | Plasmodium falciparum | % Inhibition | -7 |
| CCC[C@H]1CN(C(=O)c2cccc3cn[nH]c23)CCN1CCOC | Plasmodium falciparum | % Inhibition | 4 |
| COc1nc(N[C@H]2CCCN(C)C2)ncc1F | Plasmodium falciparum | % Inhibition | 3 |
| O=C1CC[C@H](C(=O)N2CCCCO2)CN1CCN1CCOCC1 | Plasmodium falciparum | % Inhibition | -15 |
| C#CCn1cnc(-c2ccccc2)c1NC(=O)CCc1ccc(C(C)C)cc1 | Plasmodium falciparum | % Inhibition | -7 |
| CC(C)C(=O)Nc1ccc(-c2cc(-c3ccc(NC(=O)C(C)C)cc3)nc(-c3ccncc3)n2)cc1 | Plasmodium falciparum | % Inhibition | 38 |
| Cc1cc(C)c(CNC(=O)c2cnn(C)c2C)c(=O)[nH]1 | Plasmodium falciparum | % Inhibition | -9 |
| Cc1nn(C)cc1CN(Cc1ccncc1)C1CCCCC1 | Plasmodium falciparum | % Inhibition | 8 |
| CCc1ccc(-c2cnc3ccccc3n2)cc1NC(=O)[C@@H](NS(=O)(=O)c1ccccc1)C(C)C | Plasmodium falciparum | % Inhibition | 4 |
| COc1ccc(-n2nc(C(=O)N3CCN(C)CC3)c(=O)n(Cc3cccc(C(F)(F)F)c3)c2=O)cc1OC | Plasmodium falciparum | % Inhibition | -2 |
| Cc1ccc(C2=C[C@@H](c3ccc(Cl)cc3)n3nc(NC(=O)c4ccccc4)nc3N2)cc1 | Plasmodium falciparum | % Inhibition | 84 |
| COc1ccccc1-n1c(=O)n(C2CCCC2)c(=O)c2c1ncn2Cc1ccccc1Cl | Plasmodium falciparum | % Inhibition | 37 |
| COc1ccc(C)c2sc(N(Cc3cccnc3)C(=O)c3ccn(C)n3)nc12 | Plasmodium falciparum | % Inhibition | -12 |
| CC1=C[C@@H](c2ccc(Cl)cc2)n2nc(NC(=O)c3ccccc3)nc2N1 | Plasmodium falciparum | % Inhibition | -6 |
| O[C@@H](CNc1ncnc2sccc12)c1ccc(Cl)c(F)c1 | Plasmodium falciparum | % Inhibition | 28 |
| CCN(CC)C(=O)Nc1ccc(-c2c(C)nn(CC(N)=O)c2C)cc1 | Plasmodium falciparum | % Inhibition | 1 |
| CCN1CCN([C@H]2CCN(c3cc(Cl)ccc3C#N)C2)CC1 | Plasmodium falciparum | % Inhibition | -9 |
| C[C@@H](CO)N(C)S(=O)(=O)[C@H]1C[C@@H]1c1ccc(Br)cc1 | Plasmodium falciparum | % Inhibition | 1 |
| CN(Cc1ccc(-c2ccccc2)cc1)c1cc([C@H]2C[C@@H](N)C2)nc(N)n1 | Plasmodium falciparum | % Inhibition | 64 |
| Cn1cnc2c1CCN(C[C@H](O)c1ccccc1Cl)C2 | Plasmodium falciparum | % Inhibition | 0 |
| CCOc1ccc(C2c3[nH]c4ccccc4c3C[C@H]3C(=O)N(C4CCN(Cc5ccccc5)CC4)CC(=O)N23)cc1OC (some centres not stated) | Plasmodium falciparum | % Inhibition | 79 |
| Cc1cccn(CC(=O)NCC(=O)Nc2cccnc2)c1=O | Plasmodium falciparum | % Inhibition | -6 |
| COc1cccc(CNS(=O)(=O)c2cc(-c3c(C)nn4c3NC(=O)CCC4=O)ccc2OC)c1 | Plasmodium falciparum | % Inhibition | 2 |
| Cc1ccc(C2=C[C@@H](c3ccc(C)cc3)n3nc(NC(=O)c4cccc(Cl)c4)nc3N2)cc1 | Plasmodium falciparum | % Inhibition | 16 |
| O=c1[nH]c(=O)n(CCS(=O)(=O)c2ccccc2)cc1Cl | Plasmodium falciparum | % Inhibition | -11 |
| O=c1[nH]c(=O)n(S(=O)(=O)c2ccccc2)cc1F | Plasmodium falciparum | % Inhibition | 90 |
| O=C(c1ccc2c(c1)OCO2)N1CCn2c1nc1ccccc12 | Plasmodium falciparum | % Inhibition | 72 |
| CC(NC(=O)NC(C)c1ccc(-c2cccnc2)cc1)c1ccncc1 (configuration not stated) | Plasmodium falciparum | % Inhibition | 7 |
| Cc1ccccc1-n1c(=O)n(C2CCCCC2)c(=O)c2c1ncn2Cc1ccccc1 | Plasmodium falciparum | % Inhibition | -1 |
| OC(CN1CCOC2CCCCC21)Cn1cccn1 (configuration not stated) | Plasmodium falciparum | % Inhibition | -5 |
| CCOc1ccc(C2c3[nH]c4ccccc4c3C[C@H]3C(=O)N(C4CCCCCCC4)CC(=O)N23)cc1OC (some centres not stated) | Plasmodium falciparum | % Inhibition | 12 |
| COc1ccc(Cn2c(C)c(C3=CCN(S(=O)(=O)c4cc(C)c(C)cc4C)CC3)c3ccccc32)cc1 | Plasmodium falciparum | % Inhibition | 0 |
| Cc1ccccc1Cn1cnc2c1c(=O)n(C1CCCC1)c(=O)n2-c1ccccc1 | Plasmodium falciparum | % Inhibition | -7 |
| CC(=O)Nc1ccc(C)cc1S(=O)(=O)N1CC=C(c2c(C)n(Cc3ccccc3C)c3ccccc23)CC1 | Plasmodium falciparum | % Inhibition | 92 |
| CCOc1ccc(-c2noc([C@@H]3Cc4ccccc4N3C(C)=O)n2)cc1Cl | Plasmodium falciparum | % Inhibition | 19 |
| C[C@H](NC(=O)c1cc(C(F)(F)F)n[nH]1)c1n[nH]c(N)n1 | Plasmodium falciparum | % Inhibition | -2 |
| COCCN1CC[C@H](c2ncnn2C2CCCCC2)C1 | Plasmodium falciparum | % Inhibition | -7 |
| COc1cc(Cl)c(CNC(C)(C)CO)cc1OC | Plasmodium falciparum | % Inhibition | 4 |
| COc1nccc2c(NCc3cn(C(C)(C)C)nn3)cccc12 | Plasmodium falciparum | % Inhibition | 5 |
| COc1cc2cc(NC(C)=N)nc(C)c2cc1OC | Plasmodium falciparum | % Inhibition | 15 |

---

test system: Plasmodium falciparum; assay: Primary screen in NF54 nanoGlo assay, in single point, at 2uM, 72h; format: functional, Erythrocyte; conditions: timepoint 72 hour
Out of some 150,000 compounds screened, about 540 (0.36%) showed an effect of 50% or more. The entries come from a sample that favours strong results as a whole.
Measurement label: % Inhibition (%)

| Smiles data | Value observed |
| --- | --- |
| O=C(Nc1ccc2c(c1)OCCCO2)c1ccco1 | 29 |
| CC(C)n1c(=O)c(NCc2cccc(C(F)(F)F)c2)nc2ccncc21 | 24 |
| C[C@@H](NC(=O)c1ccco1)c1ccccc1 | 0 |
| Cc1cnn(CCCNC(=O)C[C@H]2COCCN2Cc2ccc(C)o2)c1 | -20 |
| CCc1cccc(Nc2nc3ccncc3n(C(C)C)c2=O)c1 | 1 |
| C[C@H](NC(=O)c1ccco1)c1cc2c(cc1Br)OCCCO2 | 60 |
